tested on: HeLa Kyoto; test: solubility in G1/S (NP-40 vs SDS abundance) (log2 ratio); higher = more soluble; conditions: cell cycle stage: G1/S;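 further: HeLa Kyoto cells arrested at G1/S by double thymidine block, proteins quantified by TMT10plex mass spectrometry in mild NP-40 versus SDS extracts, three biological replicates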
measured_attribute: solubility in G1/S (log2)
I only need the number, thanks.

substance=MICALL2 study_system="HeLa Kyoto" value_measured=0.151

Hi! What's the reported solubility in G1/S (log2) for MVFPAKRFCLVPSMEGVRWAFSCGTWLPSRAEWLLAVRSIQPEEKERIGQFVFARDAKAAMAGRLMIRKLVAEKLNIPWNHIRLQRTAKGKPVLAKDSSNPYPNFNFNISHQGDYAVLAAEPELQVGIDIMKTSFPGRGSIPEFFHIMKRKFTNKEWETIRSFKDEWTQLDMFYRNWALKESFIKAIGVGLGFELQRLEFDLSPLNLDIGQVYKETRLFLDGEEEKEWAFEESKIDEHHFVAVALRKPDGSRHQDVPSQDDSKPTQRQFTILNFNDLMSSAVPMTPEDPSFWDCFCFTEEIPIRNGTKS [AASDHPPT] on HeLa Kyoto? 0.0817

Input MACAAVMIPGLLRCSVGAIRIEAASLRLTLSTLRHLTLTSIMKSKRKTDHMERTASVLRREIVSAAKVCGAASESPSVKSLRLLVADQDFSFKAGQWVDFFIPGVSVVGGFSICSSPRLLEQERVIELAVKYTNHPPALWVHNTCTLDCEVAVRVGGEFFFDPQPADASRNLVLIAGGVGINPLLSILRHAADLLREQANKRNGYEIGTIKLFYSAKNTSELLFKKNILDLVNEFPEKIACSLHVTKQTTQINAELKPYITEGRITEKEIRDHISKETLFYICGPPPMTDFFSKQLENNHVPKEHICFEKWW [OXNAD1] -0.0285

What about MASPSRRLQTKPVITCFKSVLLIYTFIFWITGVILLAVGIWGKVSLENYFSLLNEKATNVPFVLIATGTVIILLGTFGCFATCRASAWMLKLYAMFLTLVFLVELVAAIVGFVFRHEIKNSFKNNYEKALKQYNSTGDYRSHAVDKIQNTLHCCGVTDYRDWTDTNYYSEKGFPKSCCKLEDCTPQRDADKVNNEGCFIKVMTIIESEMGVVAGISFGVACFQLIGIFLAYCLSRAITNNQYEIV [TSPAN6] ? -0.201

Here is the next substance: MWGFRLLRSPPLLLLLPQLGIGNASSCSQARTMNPGGSGGARCSLSAEVRRRQCLQLSTVPGADPQRSNELLLLAAAGEGLERQDLPGDPAKEEPQPPPQHHVLYFPGDVQNYHEIMTRHPENYQWENWSLENVATILAHRFPNSYIWVIKCSRMHLHKFSCYDNFVKSNMFGAPEHNTDFGAFKHLYMLLVNAFNLSQNSLSKKSLNVWNKDSIASNCRSSPSHTTNGCQGEKVRTCEKSDESAMSFYPPSLNDASFTLIGFSKGCVVLNQLLFELKEAKKDKNIDAFIKSIRTMYWLDGGHSGGSNTWVTYPEVLKEFAQTGIIVHTHVTPYQVRDPMRSWIGKEHKKFVQILGDLGMQVTSQIHFTKEAPSIENHFRVHEVF [C2ORF69] 0.0592

Further, for MFLVGLTGGIASGKSSVIQVFQQLGCAVIDVDVMARHVVQPGYPAHRRIVEVFGTEVLLENGDINRKVLGDLIFNQPDRRQLLNAITHPEIRKEMMKETFKYFLRGYRYVILDIPLLFETKKLLKYMKHTVVVYCDRDTQLARLMRRNSLNRKDAEARINAQLPLTDKARMARHVLDNSGEWSVTKRQVILLHTELERSLEYLPLRFGVLTGLAAIASLLYLLTHYLLPYA [DCAKD] ? -0.0828

Again, but for MAATASAGAGGIDGKPRTSPKSVKFLFGGLAGMGATVFVQPLDLVKNRMQLSGEGAKTREYKTSFHALTSILKAEGLRGIYTGLSAGLLRQATYTTTRLGIYTVLFERLTGADGTPPGFLLKAVIGMTAGATGAFVGTPAEVALIRMTADGRLPADQRRGYKNVFNALIRITREEGVLTLWRGCIPTMARAVVVNAAQLASYSQSKQFLLDSGYFSDNILCHFCASMISGLVTTAASMPVDIAKTRIQNMRMIDGKPEYKNGLDVLFKVVRYEGFFSLWKGFTPYYARLGPHTVLTFIFLEQMNKAYKRLFLSG [SLC25A11] -0.0956

Also MAEQEPTAEQLAQIAAENEEDEHSVNYKPPAQKSIQEIQELDKDDESLRKYKEALLGRVAVSADPNVPNVVVTGLTLVCSSAPGPLELDLTGDLESFKKQSFVLKEGVEYRIKISFRVNREIVSGMKYIQHTYRKGVKIDKTDYMVGSYGPRAEEYEFLTPVEEAPKGMLARGSYSIKSRFTDDDKTDHLSWEWNLTIKKDWKD [ARHGDIA] ? 0.25

Do the same for MAAAAAGTATSQRFFQSFSDALIDEDPQAALEELTKALEQKPDDAQYYCQRAYCHILLGNYCVAVADAKKSLELNPNNSTAMLRKGICEYHEKNYAAALETFTEGQKLDIETGFHRVGQAGLQLLTSSDPPALDSQSAGITGADANFSVWIKRCQEAQNGSESEVWTHQSKIKYDWYQTESQVVITLMIKNVQKNDVNVEFSEKELSALVKLPSGEDYNLKLELLHPIIPEQSTFKVLSTKIEIKLKKPEAVRWEKLEGQGDVPTPKQFVADVKNLYPSSSPYTRNWDKLVGEIKEEEKNEKLEGDAALNRLFQQIYSDGSDEVKRAMNKSFMESGGTVLSTNWSDVGKRKVEINPPDDMEWKKY [SUGT1] please 0.138

Note, next up: MASEELQKDLEEVKVLLEKATRKRVRDALTAEKSKIETEIKNKMQQKSQKKAELLDNEKPAAVVAPITTGYTVKISNYGWDQSDKFVKIYITLTGVHQVPTENVQVHFTERSFDLLVKNLNGKSYSMIVNNLLKPISVEGSSKKVKTDTVLILCRKKVENTRWDYLTQVEKECKEKEKPSYDTETDPSEGLMNVLKKIYEDGDDDMKRTINKAWVESREKQAKGDTEF [CACYBP] 0.412

Cool, now MKFVYKEEHPFEKRRSEGEKIRKKYPDRVPVIVEKAPKARIGDLDKKKYLVPSDLTVGQFYFLIRKRIHLRAEDALFFFVNNVIPPTSATMGQLYQEHHEEDFFLYIAYSDESVYGL [GABARAP] 0.16
